// data source = PubChem BioAssay (NCI)

System: M14 melanoma
Assay: NCI tumour cell line growth inhibition, 48 h
Each entry below carries its recorded TGI.

Example cases with answers are listed next.
INSERT INTO measurements (molecule, measurement_kind, meas_value) VALUES
  ('CCN(CC)CCn1c(=O)c2cccnc2n2c3c(=O)n(C)c(=O)n(C)c3nc12', 'TGI', '> 100 µM'),
  ('COc1ccc(-c2nnc(COc3ccc(C(=O)/C=C/c4ccco4)cc3)o2)cc1', 'TGI', '14.6 µM'),
  ('Cc1nc(N)c(N2CCN([N+](=O)[O-])CC2)c(=O)[nH]1', 'TGI', '> 100 µM'),
  ('CCNC(=O)Cc1nc2c(N)ncnc2n1C1OC(CO)C(O)C1O (stereo not given)', 'TGI', '> 100 µM'),
  ('CSC(=S)N/N=C(\C)c1ccc(S(=O)(=O)N(C)c2ccccc2)cc1', 'TGI', '> 100 µM');

Ask | Field request: TGI | item: `COc1cc2c3c(n(C)c(=O)c2cc1OC)-c1cc2c(cc1/C3=C\CCCN)OCO2`
Reply | > 100 µM

Ask | Moving on to the next molecule: `O=C(CCc1nnc2sc(-c3ccc(Cl)cc3Cl)nn12)c1nc2ncccc2[nH]1`
Reply | 16.5 µM
